methodSummary: Dose without significant effect on water or total fluid intake
condition: mouse, in vivo, ip; intraperitoneal injection at 12 hourly intervals, read from dose graph; read-out: Dose which has no significant effect on water or total fluid intake
measurementKind: NOAEL (mg/kg)
Only the number, expressed in mg/kg, is required.

Input line: Field request: NOAEL | item: C(=C\c1cccc2ccccc12)/c1ccncc1.Cl [N V P]
Output line: 2

Cited source for all entries: patent US4006240A
